target under test: Tyrosine-protein kinase Mer (Homo sapiens) (UniProt Q12866);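 also: values are mean inhibition of human MER kinase, from the GSK PKIS profiling panel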
Sequence (whole entry): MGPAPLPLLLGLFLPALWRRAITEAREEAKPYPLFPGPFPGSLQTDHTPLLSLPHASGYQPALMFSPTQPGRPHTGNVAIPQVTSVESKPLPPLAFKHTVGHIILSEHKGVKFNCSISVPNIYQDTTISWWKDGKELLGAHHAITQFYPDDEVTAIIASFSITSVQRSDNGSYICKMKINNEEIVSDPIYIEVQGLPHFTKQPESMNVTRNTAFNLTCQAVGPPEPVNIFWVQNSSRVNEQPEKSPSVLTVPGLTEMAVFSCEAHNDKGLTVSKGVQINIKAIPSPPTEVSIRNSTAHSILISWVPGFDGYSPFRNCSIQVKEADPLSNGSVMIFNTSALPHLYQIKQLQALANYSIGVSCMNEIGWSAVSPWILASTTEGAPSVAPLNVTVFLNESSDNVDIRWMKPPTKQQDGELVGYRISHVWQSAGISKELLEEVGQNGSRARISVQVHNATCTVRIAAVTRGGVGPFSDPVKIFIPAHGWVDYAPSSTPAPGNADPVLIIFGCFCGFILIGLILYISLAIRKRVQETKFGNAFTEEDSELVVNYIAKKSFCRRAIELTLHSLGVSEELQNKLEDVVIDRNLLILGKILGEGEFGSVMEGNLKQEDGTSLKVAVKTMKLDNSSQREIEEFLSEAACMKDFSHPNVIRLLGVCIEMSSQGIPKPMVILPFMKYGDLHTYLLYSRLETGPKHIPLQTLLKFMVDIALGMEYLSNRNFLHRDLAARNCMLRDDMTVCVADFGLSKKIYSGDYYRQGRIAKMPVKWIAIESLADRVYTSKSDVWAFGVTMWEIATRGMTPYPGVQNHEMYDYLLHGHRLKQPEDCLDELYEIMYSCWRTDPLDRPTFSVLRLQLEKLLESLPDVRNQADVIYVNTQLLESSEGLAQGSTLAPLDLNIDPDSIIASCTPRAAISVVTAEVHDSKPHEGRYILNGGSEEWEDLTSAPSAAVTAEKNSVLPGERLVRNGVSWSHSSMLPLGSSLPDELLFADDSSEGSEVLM
condition label: at 1 µM
I would appreciate it if you labelled entries Satisfied when inhibition is 6% or higher, otherwise Not satisfied.

Given the entry [O-][S+]1CCN(Cc2ccc(-c3ccc4ncnc(Nc5ccc(OCc6ccccc6)c(Cl)c5)c4c3)o2)CC1 , answer whether its inhibition meets or surpasses 6%.
Satisfied

Given the entry Cc1nc(-c2ccccc2)n2nc(NCCCN3CCOCC3)ncc12 , answer whether its inhibition meets or surpasses 6%.
Not satisfied

Given the entry O=C1Nc2ccc(-c3cccnc3)cc2C1=Cc1cc(Br)c(O)c(Br)c1 , answer whether its inhibition meets or surpasses 6%.
Not satisfied

Given the entry O=C(Nc1ccc(Oc2ccc3[nH]c(NC(=O)c4ccco4)nc3c2)cc1)Nc1cc(C(F)(F)F)ccc1F , answer whether its inhibition meets or surpasses 6%.
Satisfied

From here, focus on the item given below.
Given the entry COc1ccc2ncnc(Nc3ccc(OCc4ccccc4)cc3)c2c1 , answer whether its inhibition meets or surpasses 6%.
Satisfied

----------
Tested on: Mast/stem cell growth factor receptor Kit (Homo sapiens), P10721 [V560G]
Sequence (P10721 whole entry V560G): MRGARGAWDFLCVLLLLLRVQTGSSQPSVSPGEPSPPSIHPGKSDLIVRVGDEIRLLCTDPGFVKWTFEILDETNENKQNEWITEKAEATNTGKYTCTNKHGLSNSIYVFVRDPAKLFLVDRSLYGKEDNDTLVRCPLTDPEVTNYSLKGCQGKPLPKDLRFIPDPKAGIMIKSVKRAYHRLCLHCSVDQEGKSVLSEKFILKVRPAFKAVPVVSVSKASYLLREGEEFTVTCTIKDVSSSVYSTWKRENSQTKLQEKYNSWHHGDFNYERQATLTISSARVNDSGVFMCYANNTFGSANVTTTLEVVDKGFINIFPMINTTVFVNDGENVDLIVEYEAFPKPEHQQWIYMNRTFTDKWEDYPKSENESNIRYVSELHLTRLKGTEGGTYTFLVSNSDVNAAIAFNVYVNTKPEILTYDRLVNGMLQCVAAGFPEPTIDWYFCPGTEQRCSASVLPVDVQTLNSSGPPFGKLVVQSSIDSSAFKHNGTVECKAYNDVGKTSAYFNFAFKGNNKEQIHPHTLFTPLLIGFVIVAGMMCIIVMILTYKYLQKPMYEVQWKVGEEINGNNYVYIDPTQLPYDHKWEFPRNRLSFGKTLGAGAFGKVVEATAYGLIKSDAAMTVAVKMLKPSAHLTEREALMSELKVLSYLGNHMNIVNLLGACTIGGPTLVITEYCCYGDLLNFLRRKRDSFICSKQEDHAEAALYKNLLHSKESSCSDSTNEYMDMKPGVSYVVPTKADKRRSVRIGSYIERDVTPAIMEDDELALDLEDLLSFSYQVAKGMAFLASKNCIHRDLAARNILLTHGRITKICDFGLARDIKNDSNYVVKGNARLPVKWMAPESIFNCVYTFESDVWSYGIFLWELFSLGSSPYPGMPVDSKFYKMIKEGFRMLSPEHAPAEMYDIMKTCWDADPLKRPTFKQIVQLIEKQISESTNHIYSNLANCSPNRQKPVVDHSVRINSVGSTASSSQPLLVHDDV
condition label: at 0.1 µM
assay metric: inhibition (%)
Use % as the unit, but write only the number.

Please review the entries below; each comes with its answer.
Form field inhibition, entry CC(C)c1ccc(Nc2nccc(-c3cnn4ncccc34)n2)cc1 : 17.7

Form field inhibition, entry CCS(=O)(=O)c1ccc(OC)c(Nc2ncc(-c3cccc(OC)c3)o2)c1 : 3.11

Form field inhibition, entry NS(=O)(=O)c1cccc(-c2cc3ccncc3cc2OCc2ccccc2)c1 : 3.77

Form field inhibition, entry Nc1ccc(C#Cc2cncnc2Nc2ccc(OCc3cccc(F)c3)c(Cl)c2)cc1 : -3.03

Form field inhibition, entry Cc1cc(Cl)cc2c1NC(=O)C2=NNc1ccc(S(N)(=O)=O)cc1 : 2.2

Further cases:
Form field inhibition, entry NC(=O)c1sc(-n2cnc3ccccc32)cc1OCc1ccccc1Br : -5.3

Form field inhibition, entry O=C1Nc2ccccc2/C1=C/Nc1ccc2[nH]c(=O)[nH]c2c1 : -0.78

Cited source for all entries: ChEMBL document CHEMBL1961873
